Test system: MALME-3M melanoma
TEST PROTOCOL: NCI tumour cell line growth inhibition, 48 h
# TGI per record follows

Answered examples (8):
- COMPOUND: "c1ccc(N2N=NC3C4CC(C5c6ccccc6C45)C32)cc1 (stereo unspecified)"
  TGI: "69.4 µM"
- COMPOUND: "COc1cccc(/C=N/NC(=O)CN(C)C)c1O"
  TGI: "> 100 µM"
- COMPOUND: "Nc1nc(N)c2nc(CNc3ccc(C(=O)NC(CCNC(=O)c4ccccc4C(=O)O)C(=O)O)cc3)cnc2n1 (stereo unspecified)"
  TGI: "> 100 µM"
- COMPOUND: "N/C(=N\\C(N)=N\\c1nc2ccccc2s1)c1ccnc(Br)c1"
  TGI: "> 100 µM"
- COMPOUND: "CCOC(=O)C(NC(=O)c1ccccc1)(Nc1ccc(S(=O)(=O)Nc2ccc(OC)nn2)cc1)C(F)(F)F (stereo unspecified)"
  TGI: "> 100 µM"
- COMPOUND: "CC(C)=Cc1cc(C(=O)NCCNC(=O)c2cc(C=C(C)C)nc(NC#N)n2)nc(NC#N)n1"
  TGI: "> 100 µM"
- COMPOUND: "CC(C)(/C=N/O)/[N+]([O-])=C/c1ccccc1"
  TGI: "> 100 µM"
- COMPOUND: "C=C(C)[C@@H]1CCC2=C(CC[C@]3(C)[C@@H]([C@@H](CCC=C(C)C)C(=O)O)[C@H](O)C[C@@]23C)[C@@]1(C)CCC(=O)O"
  TGI: "> 100 µM"

Q. Give TGI (MALME-3M melanoma) of the following compound: CN(C)CCNC(=O)c1cccc2[nH]c(-c3ccc(Cl)cc3)nc12
A. 19.9 µM

Q. Give TGI (MALME-3M melanoma) of the following compound: O=C(Nc1ccc(Cl)cc1)c1cc2ccccc2cc1OP(=O)(O)O
A. 7.3 µM

Q. Give TGI (MALME-3M melanoma) of the following compound: N#CC(C#N)C1CN2CCC1CC2 (stereo unspecified)
A. > 100 µM

Q. Give TGI (MALME-3M melanoma) of the following compound: COc1cc(-c2ccc(=O)oc2C#Cc2ccccc2)cc(OC)c1OC
A. > 100 µM

Q. Give TGI (MALME-3M melanoma) of the following compound: CCOC(=O)C1=C(O)c2ccc(OC)cc2C(=O)C1=O
A. > 100 µM

The origin of these recorded values is PubChem BioAssay (NCI).
